target: human muscarinic M3 receptor (Homo sapiens, UniProt P20309); construct: expressed in transfected cells; test: Alphascreen Surefire phospho-ERK1/2 functional assay, M3; type: cell-based; details: CHO, read-out: % Emax cf. ACh, M3
Sequence (P20309 whole entry): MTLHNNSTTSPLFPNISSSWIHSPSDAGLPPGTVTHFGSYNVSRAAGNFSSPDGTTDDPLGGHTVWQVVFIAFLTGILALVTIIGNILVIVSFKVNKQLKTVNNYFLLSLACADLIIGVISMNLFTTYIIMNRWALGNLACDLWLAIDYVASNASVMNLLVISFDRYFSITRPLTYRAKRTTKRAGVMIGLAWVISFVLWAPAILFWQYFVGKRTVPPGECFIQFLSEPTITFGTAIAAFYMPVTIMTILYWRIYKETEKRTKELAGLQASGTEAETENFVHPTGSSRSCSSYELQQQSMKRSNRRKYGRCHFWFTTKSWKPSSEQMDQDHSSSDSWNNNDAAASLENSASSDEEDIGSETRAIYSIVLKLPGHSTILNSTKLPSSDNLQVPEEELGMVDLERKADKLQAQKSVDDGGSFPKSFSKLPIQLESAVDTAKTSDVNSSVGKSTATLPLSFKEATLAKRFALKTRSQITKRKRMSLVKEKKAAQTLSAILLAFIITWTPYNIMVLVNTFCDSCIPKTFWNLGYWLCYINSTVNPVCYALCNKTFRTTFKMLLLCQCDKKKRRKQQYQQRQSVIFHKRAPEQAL
measured.property: Emax
Please make sure the unit comes right after the number.

# example entries with known answers
CCOC(=O)N1C2CCCC1CC(N1CC(CC(=O)N3CCCCC3)C1)C2 (single isomer, unassigned) [Example 3-3 Isomer 1]; 9%
CCOC(=O)N1C2CCC1CC(N1CC(OC(=O)N3CCCCCC3)C1)C2 (mixture of isomers) [Example 5-1 Isomer mixture]; 45%
CCOC(=O)N1C2CCC1CC(N1CC(CC(=O)N3CCCCC3)C1)C2 (mixture of isomers) [Example 1-4 Isomer mixture]; 6%

Query compound follows.
**Q:** Which measured Emax value corresponds to CCOC(=O)N1C2CCC1CC(N1CC(CC(=O)N(CC)CC)C1)C2 (single isomer, unassigned) [Example 1-1 Isomer 2] ?
**A:** 28%
